Values were extracted from ChEMBL document CHEMBL1201862.

- Test system: PC-3
- EXPERIMENTAL DETAILS: NCI tumour cell line growth inhibition, 48 h
The source made the active and inactive calls. No stated cut-off is given here; in the data, active = GI50 up to about 1.1 µM and inactive = higher.
Select the matching outcome among t = active, f = inactive

// below: answered compounds
COMPOUND | CAT
CC(C)C[C@H](NC(=O)[C@H](Cc1cccc2ccccc12)NC(=O)N1CCOCC1)B(O)O | t
COc1ccc(NC(=S)NNC(=O)c2cc(-c3ccccc3)nc3ccccc23)cc1 | f

What did this assay record as the result for Oc1c(C(O)c2ccccn2)ccc2ccccc12 (stereo not given) ?
f

What did this assay record as the result for "O=C(O)C/C(=C\c1ccccc1)C(=O)O" ?
f

What did this assay record as the result for "C[n+]1c(-c2ccc(/C=N\N3CCN(/N=C/c4ccc(-c5cn6ccccc6[n+]5C)cc4)CC3)cc2)cn2ccccc21" ?
f
